target under test: Bcl-2 protein (Recombinant Human Bcl-2 Protein) (Homo sapiens, UniProt P10415)
Construct: purchased Novus NBP2-34889
Sequence (P10415 whole entry): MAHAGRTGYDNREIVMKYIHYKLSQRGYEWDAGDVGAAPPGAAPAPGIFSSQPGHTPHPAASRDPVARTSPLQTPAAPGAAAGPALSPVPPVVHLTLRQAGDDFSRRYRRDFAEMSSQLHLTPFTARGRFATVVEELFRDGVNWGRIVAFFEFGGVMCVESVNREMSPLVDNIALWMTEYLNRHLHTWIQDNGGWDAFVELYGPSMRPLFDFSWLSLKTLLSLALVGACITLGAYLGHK
experiment notes: Binding evaluation of mixture library compounds to Bcl-2 using AS-MS (affinity selection mass spectrometry)
test conditions: n = 1
Method: […] Then, analysis of the 1200 compounds was carried out for samples A, B, and C with TraceFinder 5.1 (Thermo Fisher Scientific) and CHANCE Software (in-house), and the ASMS Ratio (%) was calculated according to the following calculation formula. […]
So I've got a bunch of compounds here, and I need their ASMS ratio (%) values.
A bare number is not enough; add the unit after it.

*Q* Name the reported ASMS ratio (%) value associated with the compound CCOc1cccc(-c2ccc(CN3CCN(c4ccc(C(=O)NS(C)(=O)=O)nn4)CC3)cc2C)c1 [B2I073-01]
*A* 0.0%

*Q* Request: CCOc1cncc(-c2ccc(C(=O)N3CCN(c4ccc(C(=O)NS(=O)(=O)C(C)(C)C)nn4)CC3)cc2F)c1 [B2L006-01]
*A* 0.0%

*Q* Request: CCOc1cncc(-c2cc(C(=O)N3CCN(c4ccc(C(=O)NS(=O)(=O)c5ccc(NCCSc6ccccc6)c(C(F)(F)F)c5)nn4)CC3)cc(C(C)(C)C)c2)c1 [B2R016-01]
*A* 9.1%

*Q* Request: CCOc1cccc(-c2cc(CN3CCN(c4ccc(C(=O)NS(=O)(=O)CCC(F)(F)F)nn4)CC3)cc(C(F)(F)F)c2)c1 [B2N087-01]
*A* 0.0%

*Q* Request: CCOc1cccc(-c2ccc(C(=O)N3CCN(c4ccc(C(=O)NS(=O)(=O)CCC(F)(F)F)nn4)CC3)c3ccccc23)c1 [B2N013-01]
*A* 0.0%

*Q* Request: CCOc1cncc(-c2ccc(CN3CCN(c4ccc(C(=O)NS(C)(=O)=O)nn4)CC3)c(OC)c2)c1 [B2I080-01]
*A* 0.0%

*Q* Request: CCOc1cncc(-c2cc(CN3CCN(c4ccc(C(=O)NS(=O)(=O)CCC(F)(F)F)cc4)CC3)cc(OC(C)C)c2)c1 [B2N058-01]
*A* 0.0%

*Q* Request: CCOc1cncc(-c2ccc(CN3CCN(c4ccc(C(=O)NS(=O)(=O)c5ccc(NCCSc6ccccc6)c(C(F)(F)F)c5)cc4)CC3)c3ccccc23)c1 [B2R066-01]
*A* 19.8%

*Q* Request: CCOc1cccc(-c2ccc(CN3CCN(c4ccc(C(=O)NS(C)(=O)=O)cc4)CC3)cc2C)c1 [B2I047-01]
*A* 0.8%

*Q* Request: CCOc1cncc(C#Cc2cncc(C(=O)N3CCN(c4ccc(C(=O)NS(=O)(=O)CCC(F)(F)F)cc4)CC3)c2)c1 [B2N032-01]
*A* −0.4%

*Q* Request: CCOc1cncc(-c2ccccc2CCC(=O)N2CCN(c3ccc(C(=O)NS(=O)(=O)C(C)(C)C)cc3)CC2)c1 [B2L034-01]
*A* 1.6%

*Q* Request: CCOc1cccc(-c2cc(C(=O)N3CCN(c4ccc(C(=O)NS(=O)(=O)CCC(F)(F)F)cc4)CC3)cc(C(C)(C)C)c2)c1 [B2N037-01]
*A* 0.0%

*Q* Request: CCOc1cncc(-c2cc(CN3CCN(c4ccc(C(=O)NS(C)(=O)=O)nn4)CC3)cc(OCC)c2)c1 [B2I082-01]
*A* 0.0%

*Q* Request: CCOc1cccc(C#Cc2cc(C(=O)N3CCN(c4ccc(C(=O)NS(C)(=O)=O)cc4)CC3)cc(C(F)(F)F)c2)c1 [B2I041-01]
*A* 0.0%
